# assay.name: Solubility of compound in water at pH 7.4 by UV-HPLC method
# Type: physicochemical
Catalogue of compounds with associated solubility
The reply should contain only the number, in µg/mL.

So, COc1cc(C(=O)c2nn(-c3ccccc3)nc2N2CCN(C(C)=O)CC2)cc(OC)c1OC ? Its solubility was 2.7

Field solubility (entry COc1ccc(/C=C\c2cc(OC)c(OC)c(OC)c2)cc1O [COMBRETASTATIN A4] ) reads 0.1

Notebook: COc1cc(C(=O)c2nn(-c3ccccc3)nc2N2CCNCC2)cc(OC)c1OC , solubility read as 2.2
